Test system: A549
ASSAY EXPLANATION: Anticancer activity against human A549 cells assessed as reduction in cell proliferation
Type: functional, cell-based
MEASUREMENT TYPE: IC50 (µM)

INSERT INTO measurements (structure, unit_annotation, experimental_result) VALUES
  ('Cc1ccc(/C=C2\CN(C)C[C@]3(C2=O)[C@H](c2ccc(C)cc2)CN(C)[C@]32C(=O)N(CN3CCOCC3)c3ccccc32)cc1', 'µM', 3.59);

###

System: A549
ASSAY EXPLANATION: Antiproliferative activity against human A549 cells assessed as cell growth inhibition
Assay type: functional, cell-based
pIC50: −log10 of the molar value.
MEASUREMENT TYPE: pIC50

INSERT INTO assay_data (structure, assayed_system, measurement_type, experimental_result) VALUES
  ('O=C(C[C@@H](CC1CCCC1)C(=O)N1CC2(CC2)C[C@H]1C(=O)Nc1ccc(F)cn1)NO', 'A549', 'pIC50', 5.31);

Reference source for all entries: ChEMBL document CHEMBL5233269
